Values from paper PMC4311625

- Assay System: ACE2 (Homo sapiens, UniProt Q9BYF1)
- Sequence (Q9BYF1 18-805, species assumed): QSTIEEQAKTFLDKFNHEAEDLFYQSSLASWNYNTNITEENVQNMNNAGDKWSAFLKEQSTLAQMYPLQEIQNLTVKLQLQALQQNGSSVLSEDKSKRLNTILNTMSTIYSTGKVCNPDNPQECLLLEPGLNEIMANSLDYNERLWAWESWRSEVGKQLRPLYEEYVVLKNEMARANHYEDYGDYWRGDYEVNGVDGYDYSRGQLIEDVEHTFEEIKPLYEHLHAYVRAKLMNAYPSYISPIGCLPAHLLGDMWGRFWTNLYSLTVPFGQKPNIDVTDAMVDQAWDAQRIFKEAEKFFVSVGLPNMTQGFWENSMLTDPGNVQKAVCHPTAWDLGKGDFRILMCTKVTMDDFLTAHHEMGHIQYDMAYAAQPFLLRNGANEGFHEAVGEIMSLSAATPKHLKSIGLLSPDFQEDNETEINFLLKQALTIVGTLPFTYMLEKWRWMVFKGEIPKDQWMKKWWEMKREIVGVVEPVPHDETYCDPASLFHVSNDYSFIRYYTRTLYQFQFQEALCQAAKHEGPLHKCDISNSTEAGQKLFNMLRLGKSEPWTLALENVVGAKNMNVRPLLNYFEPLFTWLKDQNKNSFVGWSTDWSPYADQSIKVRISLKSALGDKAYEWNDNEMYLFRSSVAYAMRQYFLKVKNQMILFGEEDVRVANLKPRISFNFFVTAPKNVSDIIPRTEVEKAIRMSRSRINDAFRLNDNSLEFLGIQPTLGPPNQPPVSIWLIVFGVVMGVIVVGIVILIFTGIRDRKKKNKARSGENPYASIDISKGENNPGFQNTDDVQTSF
- Experiment: ACE2 quenched fluorescence substrate (QFS) inhibition assay
- Type: biochemical
- Condition Label: read-out: ACE2 inhibition of terminally modified IHPF analogs, 100 μM (Table 3); peptide 100 μM; 50 uM QFS, 1 M NaCl, 100 mM Tris-Cl pH 6.5, 37 °C, 1 h
Peptide text beside a SMILES is read from it.
Test Readout: inhibition at 100 µM (%)

Compound	Test Readout	Value Observed
O=C(O)[C@H](Cc1ccccc1)NC(=O)[C@@H]1CCCN1C(=O)[C@H](Cc1c[nH]cn1)NC(=O)[C@@H]1CCCN1 [PHPF] (H-PHPF-OH)	inhibition at 100 µM	81
CC(=O)N1CCC[C@H]1C(=O)N[C@@H](Cc1ccc(O)cc1)C(=O)N1CCC[C@H]1C(=O)N[C@@H](Cc1ccccc1)C(=O)O [N-acetylated PYPF] (Ac-PYPF-OH)	inhibition at 100 µM	87
CC(C)[C@H](NC(=O)[C@H](Cc1ccc(O)cc1)NC(=O)[C@@H]1CCCN1)C(=O)N[C@@H](Cc1ccccc1)C(N)=O [C-amidated PYVF] (H-PYVF-NH2)	inhibition at 100 µM	26
CC[C@H](C)[C@H](NC(C)=O)C(=O)N[C@@H](Cc1c[nH]cn1)C(=O)N1CCC[C@H]1C(=O)N[C@@H](Cc1ccccc1)C(N)=O [N-acetylated/C-amidated IHPF] (Ac-IHPF-NH2)	inhibition at 100 µM	26
